biological target: beta-catenin (human); test: cell-based or functional assay
Sequence (B6V8E6 146-665 limits assumed): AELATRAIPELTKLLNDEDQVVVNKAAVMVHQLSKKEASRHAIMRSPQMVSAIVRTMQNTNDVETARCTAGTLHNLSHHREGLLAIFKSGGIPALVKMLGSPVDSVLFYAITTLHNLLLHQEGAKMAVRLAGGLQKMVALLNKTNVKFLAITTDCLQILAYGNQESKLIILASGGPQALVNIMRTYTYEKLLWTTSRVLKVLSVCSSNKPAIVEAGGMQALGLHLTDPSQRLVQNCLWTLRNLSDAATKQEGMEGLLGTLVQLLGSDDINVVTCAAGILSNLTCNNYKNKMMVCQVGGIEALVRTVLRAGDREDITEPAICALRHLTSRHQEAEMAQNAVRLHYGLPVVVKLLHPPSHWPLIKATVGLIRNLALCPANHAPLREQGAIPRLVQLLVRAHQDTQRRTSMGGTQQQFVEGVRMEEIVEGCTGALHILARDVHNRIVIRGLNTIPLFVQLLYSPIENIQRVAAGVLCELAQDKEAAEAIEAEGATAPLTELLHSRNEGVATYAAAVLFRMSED
*1 amine or outer side, *2 acyl side, *3 side chain or, on linkers, in order; H or OH if unused. Bridges are numbered along the chain shown (N, C = ends). Primed or numbered codes have the meaning given here. [ ]: non-standard residue; d: D form. PyrS2″ = (S)-3-amino-1-((pent-4-en-1-yloxy)carbonyl)pyrrolidine-3-carboxylic acid (olefin stapling residue), C=CCCCOC(=O)N1CC[C@@](N[*:1])(C(=O)[*:2])C1; PyrS2(5) = (S)-3-amino-1-((pent-4-en-1-yloxy)carbonyl)pyrrolidine-3-carboxylic acid, C=CCCCOC(=O)N1CC[C@@](N[*:1])(C(=O)[*:2])C1; B5″ = 2-amino-2-(pent-4-en-1-yl)hept-6-enoic acid (bis-olefin stapling residue), C=CCCCC(CCCC=C)(N[*:1])C(=O)[*:2]; 2F3MeF″ = aromatic residue, Cc1cccc(C[C@H](N[*:1])C(=O)[*:2])c1F; Phe(3-COOH) = N[C@@H](Cc1cccc(C(=O)O)c1)C(=O)O; Bta = N[C@@H](Cc1csc2ccccc12)C(=O)O; αAllylPro = C=CC[C@@]1(C(=O)O)CCCN1; tBuAla = CC(C)(C)C[C@H](N)C(=O)O; 3Thi = N[C@@H](Cc1ccsc1)C(=O)O; BztA″ = aromatic residue; GlnR = not defined here; B5 = not defined here; Aib = CC(C)(N)C(=O)O
Please go through the items and note down their NanoBRET Abs IC50 (bin >3.0 uM).

For Ac-[αAllylPro]N[tBuAla][B5]D[Phe(3-COOH)]AAFK[PyrS2(5)][2F3MeF″][BztA″][GlnR]LS-NH2 (bridge 10-14; not fully specified (bridges); printed as Ac-PL3-Asn-Npg-B5-Asp-3COOHF-Ala-Ala-Phe-Lys*3-PyrS2-2F3MeF-BztA-GlnR*3-Leu-Ser-NH2; reading uncertain; also: Lys10 and GlnR14 marked *3) [I-142] , what is its reported NanoBRET Abs IC50 (bin >3.0 uM)?
< 10 µM

Please give the measured NanoBRET Abs IC50 (bin >3.0 uM) for this binder: Ac-[αAllylPro]N[tBuAla][B5]D[Phe(3-COOH)][Aib]AFK[PyrS2″][2F3MeF″][BztA″][GlnR]LS-NH2 (bridge 10-14; not fully specified (bridges); printed as Ac-PL3-Asn-Npg-B5-Asp-3COOHF-Aib-Ala-Phe-Lys*3-PyrS2-2F3MeF-BztA-GlnR*3-Leu-Ser-NH2; reading uncertain; also: Lys10 and GlnR14 marked *3) [I-144]
< 10 µM

Consider the binder Ac-[αAllylPro]DL[B5″]D[Phe(3-COOH)]AAF[GlnR][PyrS2″][3Thi][Bta]K-NH2 (bridge 10-14; reading uncertain; also: PL3-B5 and PyrS2 links not placed, printed as Ac-PL3-Asp-Leu-B5-Asp-3COOHF-Ala-Ala-Phe-GlnR*3-PyrS2-3Thi-BztA-Lys*3-NH2) [I-16] and give its measured NanoBRET Abs IC50 (bin >3.0 uM).
< 10 µM
